Every entry's value here was drawn from patent US11370794B2.

Listed here are compounds together with their documented half-life at 2 μM.
Assay: Plasma stability in human plasma
Assay type: in vitro ADME
Conditions: plasma (90%); 90% human plasma, 2 μM compound, 37° C., 0-60 minutes; read-out: T1/2 in human plasma
Just the number in h, nothing appended.

Consider the worked cases shown below.
# smiles-record, half-life at 2 μM [h]
rows = [
    ("Cc1ccc(-n2nc3c(N4CCC(C(=O)NC5CN(C)C5)CC4)nnc(C)c3c2C)cc1", 3.45),
    ("Cc1ccc(-n2nc3c(N4CCC(C(=O)NCCCN(C)Cc5ccccc5)CC4)nnc(C)c3c2C)cc1", 3.74),
]

As a next step, examine the compound that follows.
INPUT: Which measured half-life at 2 μM value corresponds to "Cc1ccc(-n2nc3c(N4CCC(C(=O)NCCCN(C)C)CC4)nnc(C)c3c2C)cc1" ?
OUTPUT: 17.9

###

Listed here are molecules together with their documented IC50.
Target: human TLR8 (Homo sapiens)
Construct: endogenous in cells; host or cells: primary human monocytes (CD14 microbeads) from buffy coats of healthy donors
Sequence (Q9NR97 27-1041): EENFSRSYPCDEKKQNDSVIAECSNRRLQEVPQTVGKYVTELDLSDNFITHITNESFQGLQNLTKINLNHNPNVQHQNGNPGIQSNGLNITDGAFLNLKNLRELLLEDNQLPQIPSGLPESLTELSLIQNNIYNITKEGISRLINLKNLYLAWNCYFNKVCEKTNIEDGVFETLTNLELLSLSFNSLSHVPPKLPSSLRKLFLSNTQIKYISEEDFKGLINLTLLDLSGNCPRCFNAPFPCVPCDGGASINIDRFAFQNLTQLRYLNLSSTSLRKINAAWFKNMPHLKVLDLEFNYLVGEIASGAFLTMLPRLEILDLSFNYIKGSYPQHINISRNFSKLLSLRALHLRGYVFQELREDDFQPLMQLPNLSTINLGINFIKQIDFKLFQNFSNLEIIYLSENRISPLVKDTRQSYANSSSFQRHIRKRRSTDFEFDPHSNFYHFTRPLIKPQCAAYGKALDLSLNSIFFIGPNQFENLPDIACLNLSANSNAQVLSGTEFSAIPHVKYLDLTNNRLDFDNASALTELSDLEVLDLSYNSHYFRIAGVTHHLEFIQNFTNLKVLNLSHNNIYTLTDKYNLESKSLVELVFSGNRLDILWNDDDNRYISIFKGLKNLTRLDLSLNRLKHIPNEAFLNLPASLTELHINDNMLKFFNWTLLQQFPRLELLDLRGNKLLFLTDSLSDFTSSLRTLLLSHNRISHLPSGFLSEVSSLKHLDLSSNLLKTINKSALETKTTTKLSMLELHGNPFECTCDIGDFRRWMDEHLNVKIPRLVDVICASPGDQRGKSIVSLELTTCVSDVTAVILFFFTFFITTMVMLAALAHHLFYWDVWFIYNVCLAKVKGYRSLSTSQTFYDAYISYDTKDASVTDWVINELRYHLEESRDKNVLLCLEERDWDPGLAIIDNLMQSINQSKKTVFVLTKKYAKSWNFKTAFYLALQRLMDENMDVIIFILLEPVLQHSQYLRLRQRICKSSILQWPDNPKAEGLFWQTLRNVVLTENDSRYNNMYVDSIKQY
Assay: Inhibition of human TLR8 in human monocytes (TNF-alpha / IL-1 beta ELISA)
Assay type: cell-based
Details: human monocytes, agonist ORN8L 100 μg/mL, IL-1 beta readout, 24 hours; read-out: Human TLR8 IC50 IL-1b

# molecule, readout-value
rows = [
    ("Cc1nnc(N2CCC(C(=O)NCCN3CCCCC3C)CC2)c2nn(-c3ccccc3)c(C)c12 (centres unmarked) [24x]", "> 10 µM"),
    ("Cc1ccc(-n2nc3c(N4CCC(C(=O)NCCNC(C)C)CC4)nnc(C)c3c2C)cc1", "> 10 µM"),
    ("Cc1ccc(-n2nc3c(N4CCC(C(=O)NCCN(C)C)CC4)nnc(C)c3c2C)cc1 [Compound No. 21x]", "> 10 µM"),
    ("Cc1nnc(N2CCC(C(=O)NCCCN3CCN(C)CC3)CC2)c2nn(-c3ccccc3)c(C)c12 [31x]", "> 10 µM"),
]

INPUT: Which measured IC50 value corresponds to Cc1nnc(N2CCC(C(=O)N3CCN(C)CC3)CC2)c2nn(-c3ccccc3)c(C)c12 [59x] ?
OUTPUT: 2.11 µM

INPUT: Which measured IC50 value corresponds to "Cc1ccc(-n2nc3c(N4CCC(CCC(=O)NCCN(C)C)CC4)nnc(C)c3c2C)cc1" ?
OUTPUT: 5.02 µM

INPUT: Which measured IC50 value corresponds to Cc1nnc(N2CCCC(C(=O)NCCCN3CCOCC3)C2)c2nn(-c3ccccc3)c(C)c12 (centres unmarked) [49x] ?
OUTPUT: 3.94 µM

INPUT: Which measured IC50 value corresponds to "Cc1ccc(-n2nc3c(N4CCC(C(=O)N5CCOCC5)CC4)nnc(C)c3c2C)cc1" ?
OUTPUT: > 10 µM

###

Target: human TLR8 (Homo sapiens, UniProt Q9NR97)
Construct: endogenous in cells; host or cells: primary human monocytes (CD14 microbeads) from buffy coats of healthy donors
Sequence (Q9NR97 27-1041): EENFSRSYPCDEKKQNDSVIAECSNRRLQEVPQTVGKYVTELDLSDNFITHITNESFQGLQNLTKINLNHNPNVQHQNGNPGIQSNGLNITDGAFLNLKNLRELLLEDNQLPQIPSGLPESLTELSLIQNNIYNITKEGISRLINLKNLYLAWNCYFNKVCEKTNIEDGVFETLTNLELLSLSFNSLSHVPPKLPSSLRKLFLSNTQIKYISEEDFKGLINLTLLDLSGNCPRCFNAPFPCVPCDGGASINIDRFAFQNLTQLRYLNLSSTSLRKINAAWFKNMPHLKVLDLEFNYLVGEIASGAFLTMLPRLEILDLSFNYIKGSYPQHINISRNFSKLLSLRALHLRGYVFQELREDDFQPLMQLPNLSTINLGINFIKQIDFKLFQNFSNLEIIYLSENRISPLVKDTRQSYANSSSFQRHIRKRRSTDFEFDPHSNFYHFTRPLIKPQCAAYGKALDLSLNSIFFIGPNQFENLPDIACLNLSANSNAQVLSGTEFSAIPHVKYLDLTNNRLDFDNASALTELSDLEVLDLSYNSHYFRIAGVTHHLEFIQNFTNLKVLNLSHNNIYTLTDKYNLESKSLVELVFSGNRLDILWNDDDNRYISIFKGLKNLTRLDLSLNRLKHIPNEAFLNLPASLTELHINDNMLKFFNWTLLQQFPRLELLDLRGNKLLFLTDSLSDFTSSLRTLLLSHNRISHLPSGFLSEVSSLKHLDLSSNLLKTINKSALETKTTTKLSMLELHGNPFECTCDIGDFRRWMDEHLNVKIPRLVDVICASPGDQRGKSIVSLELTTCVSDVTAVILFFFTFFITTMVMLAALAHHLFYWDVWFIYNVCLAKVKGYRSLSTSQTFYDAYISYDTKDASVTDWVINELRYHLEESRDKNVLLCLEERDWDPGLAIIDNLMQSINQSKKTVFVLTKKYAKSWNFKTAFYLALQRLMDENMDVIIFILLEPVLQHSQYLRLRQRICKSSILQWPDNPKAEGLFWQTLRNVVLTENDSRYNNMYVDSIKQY
Assay: Inhibition of human TLR8 in human monocytes (TNF-alpha / IL-1 beta ELISA)
Type: cell-based
Details: human monocytes, agonist ORN8L 100 μg/mL, TNF-alpha readout, 24 hours; read-out: Human TLR8 IC50 TNF-a
pIC50: −log10 of the molar value.
Listed here are compounds together with their documented pIC50.

# compound, measured-target, readout-value
rows = [
    ("Cc1nnc(N2CCC(C(=O)NCCN3CCCCC3C)CC2)c2nn(-c3ccccc3)c(C)c12 (stereo not shown) [24x]", "human TLR8 (Homo sapiens, UniProt Q9NR97)", "< 5.00"),
    ("Cc1ccc(-n2nc3c(N4CCN(C(=O)NCCCN(C)C)CC4)nnc(C)c3c2C)cc1", "human TLR8 (Homo sapiens, UniProt Q9NR97)", 4.93),
    ("Cc1nnc(N2CCC(C(=O)NCCCN(C)C)CC2)c2nn(C3CCOCC3)c(C)c12", "human TLR8 (Homo sapiens, UniProt Q9NR97)", "≤ 4.70"),
]

As a next step, examine the compound that follows.
INPUT: Which measured pIC50 value corresponds to "Cc1ccc(-n2nc3c(N4CCC(C(=O)N5CCC6(CN(C)C6)C5)CC4)nnc(C)c3c2C)cc1" ?
OUTPUT: ≤ 4.70

###

Biological target: human TLR9 (Homo sapiens, UniProt Q9NR96)
Construct: endogenous in cells; host or cells: primary human B cells (CD19 microbeads) from buffy coats of healthy donors
Sequence (Q9NR96 26-1032): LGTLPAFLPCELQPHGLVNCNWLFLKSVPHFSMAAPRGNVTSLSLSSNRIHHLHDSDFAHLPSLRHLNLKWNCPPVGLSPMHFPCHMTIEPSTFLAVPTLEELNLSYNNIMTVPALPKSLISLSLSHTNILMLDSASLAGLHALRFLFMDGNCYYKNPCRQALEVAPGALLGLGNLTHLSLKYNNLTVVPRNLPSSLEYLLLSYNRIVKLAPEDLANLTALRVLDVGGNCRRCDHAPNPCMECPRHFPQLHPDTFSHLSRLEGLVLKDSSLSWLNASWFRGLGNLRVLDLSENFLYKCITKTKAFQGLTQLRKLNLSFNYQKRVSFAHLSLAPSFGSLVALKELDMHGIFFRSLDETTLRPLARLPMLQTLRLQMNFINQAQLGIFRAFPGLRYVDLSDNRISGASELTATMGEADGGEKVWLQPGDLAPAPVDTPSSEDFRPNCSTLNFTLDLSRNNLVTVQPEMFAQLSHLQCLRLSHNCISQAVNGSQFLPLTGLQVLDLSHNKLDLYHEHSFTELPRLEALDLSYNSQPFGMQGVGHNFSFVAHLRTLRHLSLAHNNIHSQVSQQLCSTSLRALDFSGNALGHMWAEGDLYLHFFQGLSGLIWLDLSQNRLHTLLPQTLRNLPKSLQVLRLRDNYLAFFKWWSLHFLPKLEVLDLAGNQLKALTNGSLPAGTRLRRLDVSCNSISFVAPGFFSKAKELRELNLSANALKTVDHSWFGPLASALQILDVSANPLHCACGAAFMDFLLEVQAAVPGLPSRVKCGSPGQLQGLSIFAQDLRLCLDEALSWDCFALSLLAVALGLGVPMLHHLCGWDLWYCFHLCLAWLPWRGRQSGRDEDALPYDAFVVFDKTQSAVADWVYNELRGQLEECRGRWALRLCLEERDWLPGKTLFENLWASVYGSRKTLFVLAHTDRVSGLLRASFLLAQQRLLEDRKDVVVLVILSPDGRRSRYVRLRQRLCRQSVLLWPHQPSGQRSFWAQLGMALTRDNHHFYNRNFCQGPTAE
Assay: Inhibition of human TLR9 in human B cells (IL-6 ELISA)
Format: cell-based
Details: human B cells, agonist 1018 ISS 1 μM, IL-6 readout, 48 hours; range about 0.01 to 10 μM; read-out: Human TLR9 IC50
Experimental: Example B3—Inhibition of Human TLR9 in Human B Cells When placed in cell culture, engagement of TLR9 with an agonist leads to expression and release of cytokines into the media. Buffy coats from anonymized, healthy human donors. […] Following isolation of […] from buffy coats, human B cells were plated into 96 well plates at approximately 300,000 cells per well. […] A portion of the media supernatant was analyzed for the presence of IL-6 using ELISA kits. […]
Listed here are compounds together with their documented log10 IC50.
Note: values are log10 of IC50 expressed in nM.

# compound, readout-value
records = [
    ("Cc1ccc(-n2cc3cnnc(N4CCC(C(=O)NC5CN(C)C5)CC4)c3n2)cc1", 1.32),
    ("Cc1ccc(-n2nc3c(N4CCC(C(=O)N5CCC(CN(C)Cc6ccccc6)C5)CC4)nnc(C)c3c2C)cc1 (stereo not shown)", 1.93),
    ("Cc1ccc(-n2nc3c(N4CCC(C(=O)N[C@H]5C[C@H](N(C)C)C5)CC4)nnc(C)c3c2C)cc1 [Compound No. 12a]", 1.85),
    ("Cc1ccc(-n2nc3c(N4CCC(C(=O)NCCCCCCN(C)C)CC4)nnc(C)c3c2C)cc1", 1.60),
    ("Cc1ccc(-n2nc3c(N4CCC(C(=O)NCC(C)(C)CN)CC4)nnc(C)c3c2C)cc1", 2.56),
]

As a next step, examine the compound that follows.
INPUT: Which measured log10 IC50 value corresponds to "Cc1ccc(-n2cc3cnnc(N4CCC(C(=O)NCCN5CCOCC5)CC4)c3n2)cc1" ?
OUTPUT: 2.75
